Reported pKi values are given for each entry in this list.
# TESTED_TARGET: GCN2 kinase (Homo sapiens, UniProt Q9P2K8)
# Sequence (Q9P2K8 whole entry): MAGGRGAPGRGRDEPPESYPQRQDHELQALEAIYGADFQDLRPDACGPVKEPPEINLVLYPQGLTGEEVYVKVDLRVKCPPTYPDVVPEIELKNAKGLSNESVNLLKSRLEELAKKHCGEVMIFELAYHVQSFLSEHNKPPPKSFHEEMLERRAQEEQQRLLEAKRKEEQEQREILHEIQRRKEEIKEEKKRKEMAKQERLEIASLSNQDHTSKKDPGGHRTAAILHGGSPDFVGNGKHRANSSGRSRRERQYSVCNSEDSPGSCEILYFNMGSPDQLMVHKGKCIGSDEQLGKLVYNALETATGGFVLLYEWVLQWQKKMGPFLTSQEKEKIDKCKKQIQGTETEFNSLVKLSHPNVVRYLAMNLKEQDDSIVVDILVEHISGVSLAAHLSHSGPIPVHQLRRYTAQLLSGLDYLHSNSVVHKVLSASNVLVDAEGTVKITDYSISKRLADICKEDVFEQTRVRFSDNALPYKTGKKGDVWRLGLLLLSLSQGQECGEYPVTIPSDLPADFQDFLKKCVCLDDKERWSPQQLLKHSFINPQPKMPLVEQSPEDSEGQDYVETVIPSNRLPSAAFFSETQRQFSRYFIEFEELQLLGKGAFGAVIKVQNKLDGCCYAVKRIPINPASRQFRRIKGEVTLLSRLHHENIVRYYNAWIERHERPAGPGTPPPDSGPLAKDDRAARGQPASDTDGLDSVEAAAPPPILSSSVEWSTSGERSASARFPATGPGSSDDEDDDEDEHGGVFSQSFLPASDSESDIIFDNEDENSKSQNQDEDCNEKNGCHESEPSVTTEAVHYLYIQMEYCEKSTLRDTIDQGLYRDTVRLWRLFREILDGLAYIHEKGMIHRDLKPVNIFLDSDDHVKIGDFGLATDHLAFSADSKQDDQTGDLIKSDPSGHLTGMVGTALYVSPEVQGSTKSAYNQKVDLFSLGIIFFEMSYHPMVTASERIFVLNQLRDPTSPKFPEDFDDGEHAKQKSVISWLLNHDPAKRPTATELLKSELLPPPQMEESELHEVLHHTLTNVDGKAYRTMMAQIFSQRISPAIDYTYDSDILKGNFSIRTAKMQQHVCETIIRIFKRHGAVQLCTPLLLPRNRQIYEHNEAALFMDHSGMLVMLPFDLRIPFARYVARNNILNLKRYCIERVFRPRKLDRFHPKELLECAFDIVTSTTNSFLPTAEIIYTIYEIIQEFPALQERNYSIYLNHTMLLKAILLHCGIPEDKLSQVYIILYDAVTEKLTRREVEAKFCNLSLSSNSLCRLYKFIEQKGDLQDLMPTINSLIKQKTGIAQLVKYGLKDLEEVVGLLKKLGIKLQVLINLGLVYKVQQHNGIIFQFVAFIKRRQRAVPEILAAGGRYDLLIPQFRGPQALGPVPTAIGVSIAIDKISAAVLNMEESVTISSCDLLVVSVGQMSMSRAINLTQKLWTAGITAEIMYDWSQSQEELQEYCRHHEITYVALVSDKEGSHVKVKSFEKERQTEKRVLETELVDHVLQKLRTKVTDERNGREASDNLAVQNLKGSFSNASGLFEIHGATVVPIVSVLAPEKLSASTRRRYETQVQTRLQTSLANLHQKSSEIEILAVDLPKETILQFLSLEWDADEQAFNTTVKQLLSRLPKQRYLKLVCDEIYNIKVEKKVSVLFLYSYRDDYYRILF
# METHOD_DESCRIPTION: GCN2 enzyme inhibition assay (Transcreener ADP2 fluorescence polarization)
# Assay type: biochemical
# COND: compounds of Formula II; 280 μM ATP, 4 nM GCN2 kinase
pKi: −log10 of the molar value.

Some entries whose results are on file:
[[record]]
compound = "NS(=O)(=O)N1CC2CCN(c3cc(-c4cnc5ccc(C(F)F)nn45)ncn3)C2C1 (stereo not drawn) [II-286]"
measured_metric = "pKi"
result = "6.00 to 8.00"

[[record]]
compound = "OCCC1CN(c2cc(-c3cnc4ccc(C(F)F)nn34)ccn2)CCO1 (stereo not drawn) [II-146]"
measured_metric = "pKi"
result = "6.00 to 8.00"


Input: Name the recorded pKi of the compound listed here: COCCOC1CC(CNS(C)(=O)=O)CN(c2cc(-c3cnc4ccc(C(F)F)nn34)ncn2)C1 (stereo not drawn) [II-550]
Output: > 8.00

###

Reported pKi values are given for each entry in this list.
# TESTED_TARGET: GCN2 kinase (Homo sapiens, UniProt Q9P2K8)
# METHOD_DESCRIPTION: GCN2 enzyme inhibition assay (Transcreener ADP2 fluorescence polarization)
# Type: biochemical
# COND: compounds of Formula II; 280 μM ATP, 4 nM GCN2 kinase
pKi: −log10 of the molar value.

Some entries whose results are on file:
[[record]]
compound = "CS(=O)(=O)NCC1CCN(c2cc(-c3cnc4ccc(C(F)F)nn34)ncn2)C1 (centres unmarked)"
result = "6.00 to 8.00"

[[record]]
compound = "CC1CC(CNS(C)(=O)=O)CN(c2cc(-c3cnc4ccc(C(F)F)nn34)ncn2)C1C (centres unmarked) [II-544]"
result = "> 8.00"

[[record]]
compound = "CC1(C)CN(c2cc(-c3cnc4ccc(C(F)F)nn34)ncn2)CC(CNS(C)(=O)=O)N1 (centres unmarked) [II-570]"
result = "6.00 to 8.00"

[[record]]
compound = "[2H]C([2H])([2H])N1CCN(c2cc(-c3cnc4ccc(C(F)F)nn34)ncn2)C(C)C1CNS(C)(=O)=O (centres unmarked) [II-562]"
result = "> 8.00"


# input for lookup
Input: Name the recorded pKi of the compound listed here: CC1C(CNS(C)(=O)=O)C(F)(F)CCN1c1cc(-c2cnc3ccc(C(F)F)nn23)ncn1 (centres unmarked) [II-432]
Output: > 8.00

###

# TESTED_TARGET: GCN2 kinase (Homo sapiens)
# METHOD_DESCRIPTION: GCN2 enzyme inhibition assay (Transcreener ADP2 fluorescence polarization)
# Type: biochemical
# COND: compounds of Formula II; 280 μM ATP, 4 nM GCN2 kinase
Reported Ki values are given for each entry in this list.

Some entries whose results are on file:
[[record]]
compound = "C[C@H]1CCCCN1c1cc(-c2cnc3ccc(C(F)F)nn23)ncn1 [II-323]"
tested_target = "GCN2 kinase (Homo sapiens)"
result = "0.01 to 1 µM"

[[record]]
compound = "CC(NS(C)(=O)=O)C1CN(c2cc(-c3cnc4ccc(C(F)F)nn34)ccn2)CCO1 (stereo not drawn) [II-106]"
tested_target = "GCN2 kinase (Homo sapiens)"
result = "< 0.01 µM"


Input: Name the recorded Ki of the compound listed here: NS(=O)(=O)N1CCCN(c2cc(-c3cnc4ccc(C(F)F)nn34)ncn2)CC1 [II-24]
Output: 0.01 to 1 µM

Input: Name the recorded Ki of the compound listed here: CS(C)(=O)=NC1CC(C(F)(F)F)CN(c2cc(-c3cnc4ccc(C(F)F)nn34)ncn2)C1 (stereo not drawn) [II-694]
Output: 0.01 to 1 µM

Input: Name the recorded Ki of the compound listed here: FC(F)(F)c1ccc2ncc(-c3ccnc(N4CCCC(c5c[nH]cn5)C4)c3)n2n1 (stereo not drawn) [II-741]
Output: < 0.01 µM

Input: Name the recorded Ki of the compound listed here: CS(C)(=O)=N[C@H]1CCCN(c2cc(-c3cnc4ccc(C(F)F)nn34)ncn2)C1 (single isomer, unassigned) [II-502]
Output: 0.01 to 1 µM

Input: Name the recorded Ki of the compound listed here: N#CCC1CN(c2cc(-c3cnc4ccc(C(F)F)nn34)ncn2)CCO1 (single isomer, unassigned) [II-565]
Output: 0.01 to 1 µM

Input: Name the recorded Ki of the compound listed here: CS(=O)(=O)N1CCC2(CCCN(c3cc(-c4cnc5ccc(C(F)F)nn45)ncn3)C2)C1 (stereo not drawn) [II-56]
Output: 0.01 to 1 µM

Input: Name the recorded Ki of the compound listed here: CC1CC(CNS(C)(=O)=O)C(C)N(c2cc(-c3cnc4ccc(C(F)F)nn34)ncn2)C1 (single isomer, unassigned) [II-545]
Output: 0.01 to 1 µM

Input: Name the recorded Ki of the compound listed here: CC1(C)CN(c2cc(-c3cnc4ccc(C(F)F)nn34)ncn2)CC(CNS(C)(=O)=O)N1 (stereo not drawn) [II-569]
Output: 0.01 to 1 µM

Input: Name the recorded Ki of the compound listed here: CC(NS(C)(=O)=O)C1CN(c2ccnc(-c3cnc4ccc(C(F)F)nn34)c2)CCO1 (stereo not drawn) [II-105]
Output: < 0.01 µM

Input: Name the recorded Ki of the compound listed here: CC1C(CNS(C)(=O)=O)N(C(C)(C)C)CCN1c1cc(-c2cnc3ccc(C(F)F)nn23)ncn1 (stereo not drawn) [II-559]
Output: 0.01 to 1 µM

Input: Name the recorded Ki of the compound listed here: COC1CCN(c2cc(-c3cnc4ccc(C(F)F)nn34)ncn2)CC1CNS(C)(=O)=O (stereo not drawn) [II-390]
Output: < 0.01 µM

Input: Name the recorded Ki of the compound listed here: CC1CN(c2cc(-c3cnc4ccc(C(F)F)nn34)ncn2)CC(CNS(C)(=O)=O)C1=O (stereo not drawn) [II-526]
Output: < 0.01 µM

Input: Name the recorded Ki of the compound listed here: CS(C)(=O)=NCC1CCCN(c2cc(-c3cnc4ccc(C(F)F)nn34)ncn2)C1 (stereo not drawn) [II-573]
Output: 0.01 to 1 µM
